Can you tell me fold change of Histamine concentration for the items I'm about to list?
Tested on: Klebsiella aerogenes DSM 30053
Assay: fold change of Histamine concentration vs plate DMSO controls (fold change (ratio)); higher = more amine produced, active = hit call of the paper (significant change in both replicates, either direction)
Details: 20 µM; incubation time: 27 h, anaerobic, 37 °C
Structures can show the parent of a compound that is named as a salt.
The answer should be a number; do not append a unit.

Item: CC(Oc1ccc(Oc2nc3ccc(Cl)cc3o2)cc1)C(=O)O (racemic) | fold change of Histamine concentration: 0.989

Lookup result for "CN/C(=N\[N+](=O)[O-])NCc1cnc(Cl)s1" ; measured fold change of Histamine concentration: 1.01

// fold change of Histamine concentration value for "COP(=O)(OC)OC=C(Cl)Cl" : 0.89

Sample C[N+]1(C)[C@@H]2CC[C@H]1C[C@@H](OC(=O)C(CO)c1ccccc1)C2 (some centres undefined) [Methylatropine nitrate] ; fold change of Histamine concentration observed: 0.978

Summary for this molecule, CCCC(Cn1cncn1)c1ccc(Cl)cc1Cl (centres undefined) : fold change of Histamine concentration is 1.02

// COCC(C)N(C(=O)CCl)c1c(C)csc1C (centres undefined) : fold change of Histamine concentration value = 0.989

fold change of Histamine concentration recorded for this molecule, CC[C@H](C)C1O[C@]2(C=C[C@@H]1C)C[C@@H]1C[C@@H](C/C=C(\C)[C@@H](O[C@H]3C[C@H](OC)[C@@H](O[C@H]4C[C@H](OC)[C@H](NC)[C@H](C)O4)[C@H](C)O3)[C@@H](C)/C=C/C=C3\CO[C@@H]4[C@H](O)C(C)=C[C@@H](C(=O)O1)[C@]34O)O2 (some centres undefined) , is 0.888

What the record says about "Cc1cccc(C)c1NC1=NCCCS1" : fold change of Histamine concentration is 1.09

Memo: OC(Cn1cncn1)(c1ccc(F)cc1)c1ccccc1F (centres undefined) , reported fold change of Histamine concentration: 1.01

The measured fold change of Histamine concentration associated with "C1CCc2nnnn2CC1" reads 0.957

Query "N#C/N=C1\SCCN1Cc1ccc(Cl)nc1" yields fold change of Histamine concentration of 0.995

For CC(Cc1ccc(O)cc1)NCC(O)c1cc(O)cc(O)c1 (centres undefined) [Fenoterol hydrobromide] the molecule record lists fold change of Histamine concentration as 1.06

// fold change of Histamine concentration value for CN1CCC2(C)c3cc(O)ccc3N(C)C12 (single isomer, unassigned; (-)) [(-) Eseroline fumarate salt] : 1

Per the records, this molecule ( "O=C1c2ccccc2C(=O)N1SC(Cl)(Cl)Cl" ) has fold change of Histamine concentration equal to 1

// sample CN(C)[C@@H]1C(=O)C(C(N)=O)=C(O)[C@@]2(O)C(=O)C3=C(O)c4c(O)cccc4[C@@](C)(O)[C@H]3[C@H](O)[C@@H]12 [Oxytetracycline dihydrate] , its fold change of Histamine concentration was 0.0509

Reported fold change of Histamine concentration for "CC1=NNC(=O)N(/N=C/c2cccnc2)C1" was 1.03

The recorded fold change of Histamine concentration for "CCCCN(CCCC)SN(C)C(=O)Oc1cccc2c1OC(C)(C)C2" is 1.01

The recorded fold change of Histamine concentration for entry "N#Cc1cc(Br)c(O)c(Br)c1" equals 1.02

Memo: CC(=O)O[C@H]1CC[C@@]2(C)C(=CC[C@@H]3[C@@H]2CC[C@]2(C)C(=O)CC[C@@H]32)C1 [Dehydroisoandosterone 3-acetate] , reported fold change of Histamine concentration: 1.02
